Attribution: patent US7566712B2

target.under.test: human capsaicin receptor (Homo sapiens, UniProt Q8NER1)
Construct: pBK-CMV expression construct encoding the full length human capsaicin receptor; expressed in transfected cells
Sequence (Q8NER1 whole entry): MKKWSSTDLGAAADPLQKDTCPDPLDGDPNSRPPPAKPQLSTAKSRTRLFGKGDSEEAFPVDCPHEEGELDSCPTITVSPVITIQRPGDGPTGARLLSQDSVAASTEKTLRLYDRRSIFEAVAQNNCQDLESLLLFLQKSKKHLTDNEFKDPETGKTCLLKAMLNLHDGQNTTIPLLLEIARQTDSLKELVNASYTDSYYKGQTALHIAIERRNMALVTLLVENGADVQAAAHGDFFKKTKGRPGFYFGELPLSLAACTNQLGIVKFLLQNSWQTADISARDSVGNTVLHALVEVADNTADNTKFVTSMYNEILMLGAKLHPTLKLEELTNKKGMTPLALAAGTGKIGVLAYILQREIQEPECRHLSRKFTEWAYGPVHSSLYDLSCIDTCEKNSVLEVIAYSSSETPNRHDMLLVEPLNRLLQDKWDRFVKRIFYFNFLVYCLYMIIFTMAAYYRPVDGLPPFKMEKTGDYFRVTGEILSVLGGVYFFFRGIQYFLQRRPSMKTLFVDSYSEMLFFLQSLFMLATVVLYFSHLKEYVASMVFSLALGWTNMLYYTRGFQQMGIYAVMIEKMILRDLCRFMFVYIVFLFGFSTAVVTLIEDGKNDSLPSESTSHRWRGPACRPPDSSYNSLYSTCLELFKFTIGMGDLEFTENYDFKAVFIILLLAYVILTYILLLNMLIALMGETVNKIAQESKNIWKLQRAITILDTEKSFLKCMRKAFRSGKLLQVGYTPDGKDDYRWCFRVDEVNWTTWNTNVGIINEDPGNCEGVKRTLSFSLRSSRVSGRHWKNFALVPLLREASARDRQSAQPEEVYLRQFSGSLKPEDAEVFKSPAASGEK
test.name: Calcium mobilization assay, determination of antagonist activity (Example 6)
Type: cell-based
particulars: determined as described in Example 6 (calcium mobilization, antagonist activity); Table II
Assign IC50 to each entry below.

Query :: State its IC50: `O=C1CN(c2nc(-c3ccc(F)c(Cl)c3)cc(N3CCN(c4ncccc4C(F)(F)F)CC3)n2)CCN1`
Result :: ≤ 1000 nM

Query :: Check the records and state IC50 for Cc1cccnc1N1CCN(c2cc(-c3ccc(F)c(F)c3)nc(N3CCCC3C)n2)CC1 (stereo not drawn)
Result :: ≤ 1000 nM

Query :: Using known records, supply IC50 for Cc1cc(-c2cc(N3CCN(c4ncccc4F)CC3)nc(N3CCCC3C)n2)ccc1F (stereo not drawn)
Result :: ≤ 1000 nM

Query :: Tell us which IC50 value is on record for `Cc1cc(-c2cc(N3CCN(c4ncccc4C(F)(F)F)CC3)nc(N(C)C(C)C)n2)ccc1F`
Result :: ≤ 1000 nM

Query :: Look up IC50 of Cc1cccc(-c2cc(N3CCN(c4ncccc4C(F)(F)F)CC3)nc(N3CCCC3C)n2)c1 (stereo not drawn) and report it.
Result :: ≤ 1000 nM

Query :: State its IC50: `CCN1CCN(c2nc(-c3ccc(F)c(C)c3)cc(N3CCN(c4ncccc4C(F)(F)F)CC3)n2)CC1`
Result :: ≤ 1000 nM

Query :: Complete the entry with IC50 for `CCN(CC)c1nc(-c2ccc(F)c(C)c2)cc(N2CCN(c3ncccc3C(F)(F)F)CC2)n1`
Result :: ≤ 1000 nM

Query :: Identify measured IC50 corresponding to `Cc1cc(-c2cc(N3CCN(c4ncccc4C(F)(F)F)CC3)nc(N(C)S(=O)(=O)C(C)C)n2)ccc1F`
Result :: ≤ 1000 nM

Query :: Give IC50 for the following compound: `O=C1CCC(=O)N1c1nc(-c2ccc(F)c(Cl)c2)cc(N2CCN(c3ncccc3C(F)(F)F)CC2)n1`
Result :: ≤ 1000 nM

Query :: Determine from records and report IC50 for `CCN1CCN(c2nc(-c3ccc(F)c(Cl)c3)cc(N3CCN(c4ncccc4C(F)(F)F)CC3)n2)CC1`
Result :: ≤ 1000 nM

Query :: Read off the recorded IC50 for `O=S(=O)(Cc1ccccc1)c1nc(-c2ccc(F)c(Cl)c2)cc(N2CCN(c3ncccc3C(F)(F)F)CC2)n1`
Result :: ≤ 1000 nM

Query :: For the compound `Fc1ccc(-c2cc(N3CCN(c4ncccc4C(F)(F)F)CC3)nc(N3CCCC3)n2)cc1Cl` , give its reported IC50.
Result :: ≤ 1000 nM

Query :: Supply IC50 value. Item: CC1CCCCN1c1nc(-c2ccc(F)c(Cl)c2)cc(N2CCN(c3ncccc3Cl)C[C@H]2C)n1 (stereo partly drawn)
Result :: ≤ 1000 nM

Query :: Fill in IC50 for record `Fc1ccc(-c2cc(N3CCN(c4ncccc4C(F)(F)F)CC3)nc(N3CCC3)n2)cc1Cl`
Result :: ≤ 1000 nM

Query :: Could you please provide reported IC50 for CC1CCN1c1nc(-c2ccc(F)c(Cl)c2)cc(N2CCN(c3ncccc3C(F)(F)F)CC2)n1 (stereo not drawn) ? Thanks!
Result :: ≤ 1000 nM

====

target.under.test: human capsaicin receptor (Homo sapiens)
Construct: pBK-CMV expression construct encoding the full length human capsaicin receptor; expressed in transfected cells
test.name: Calcium mobilization assay, determination of antagonist activity (Example 6)
Format: cell-based
particulars: Table II; IC50 determined as described in Example 6 (antagonist activity, calcium mobilization)
pIC50: −log10 of the molar value.
Consider the following compounds; for each one, report its pIC50.

Query :: Specify reported pIC50 for the compound shown: Cc1ccc(-c2cc(N3CCN(c4ncccc4Cl)C[C@H]3C)nc(N3CCC[C@@H]3C)n2)cc1Cl [Example 999]
Result :: ≥ 6.00

Query :: Could you please provide reported pIC50 for CNc1ccc(Cl)c(N2CCN(c3cc(-c4ccc(F)cc4)nc(N4CCCC4C)n3)[C@H](C)C2)n1 (stereo partly shown) [Example 1012] ? Thanks!
Result :: ≥ 6.00

Query :: Fill in pIC50 for record C[C@H]1CN(c2nccnc2Cl)CCN1c1cc(-c2ccc(F)c(Cl)c2)nc(Cl)n1 [Example 971]
Result :: ≥ 6.00

Query :: Let me know recorded pIC50 for C[C@@H]1CN(c2ncccc2F)CCN1c1cc(-c2ccc(F)c(Cl)c2)nc(Cl)n1 [Example 983] , thanks.
Result :: ≥ 6.00

Query :: Give me measured pIC50, please, for this compound: CC1CCCN1c1nc(-c2ccc(F)cc2)cc(N2CCN(c3nc(C#N)ccc3C#N)C[C@H]2C)n1 (stereo in doubt) [Example 1014]
Result :: ≥ 6.00

Query :: State, in one line, measured pIC50 of Cc1ccc(-c2cc(N3CCN(c4ncccc4Cl)C[C@H]3C)nc(N3CCOCC3)n2)cc1F [Example 980]
Result :: ≥ 6.00

Query :: Give pIC50 for C[C@H]1CN(c2nccnc2Cl)CCN1c1cc(-c2ccc(F)c(Cl)c2)nc(N2CCCC2)n1 [Example 974]
Result :: ≥ 6.00

====

Task for the reader: assign each of the following compounds its reported IC50.
target.under.test: human capsaicin receptor (Homo sapiens)
Construct: pBK-CMV expression construct encoding the full length human capsaicin receptor; expressed in transfected cells
test.name: Calcium mobilization assay, determination of antagonist activity (Example 6)
Format: cell-based
particulars: determined as described in Example 6 (calcium mobilization, antagonist activity); Table II

Query :: Dear colleague, please send me the reported IC50 for `Nc1cccnc1N1CCN(c2cc(-c3ccc(F)c(Cl)c3)nc(N3CCOCC3)n2)CC1` when you can.
Result :: ≤ 1000 nM

Query :: In one line, give reported IC50 of the entry `Cc1cc(-c2cc(N3CCN(c4ncccc4C(F)(F)F)CC3)nc(N3CCNCC3)n2)ccc1F` .
Result :: ≤ 1000 nM

Query :: Give a short answer stating reported IC50 for `Cc1cc(-c2cc(N3CCN(c4ncccc4C(F)(F)F)C[C@H]3C)nc(N(C)C(C)C)n2)ccc1F` .
Result :: ≤ 1000 nM

Query :: Return value of IC50 for input Cc1cc(-c2cc(N3CCN(c4ncccc4C(F)(F)F)CC3)nc(N3C(C)CCC3C)n2)ccc1F (stereo not drawn) , no commentary.
Result :: ≤ 1000 nM

Query :: Quickly give me recorded IC50 for `CN(C)C[C@@H]1CCCN1c1nc(-c2ccc(F)c(Cl)c2)cc(N2CCN(c3ncccc3C(F)(F)F)CC2)n1`
Result :: ≤ 1000 nM

Query :: For the compound `Cc1cc(-c2cc(N3CCN(c4ncccc4Cl)CC3)nc(N3CCCC3)n2)ccc1F` , give its measured IC50 value.
Result :: ≤ 1000 nM

Query :: State, in one line, measured IC50 of `CS(=O)(=O)Nc1cccnc1N1CCN(c2cc(-c3ccc(F)c(Cl)c3)nc(N3CCOCC3)n2)CC1`
Result :: ≤ 1000 nM

Query :: Read off the recorded IC50 for `Cc1cc(-c2cc(N3CCN(c4ncccc4C(F)(F)F)CC3)nc(Cl)n2)ccc1F`
Result :: ≤ 1000 nM

Query :: Identify measured IC50 corresponding to CC1CN(c2nc(-c3ccc(F)c(Cl)c3)cc(N3CCN(c4ncccc4C(F)(F)F)CC3)n2)CCN1 (stereo not drawn)
Result :: ≤ 1000 nM

Query :: Identify measured IC50 corresponding to `Cc1cc(-c2cc(N3CCN(c4ncccc4C(F)(F)F)CC3)nc(N3CCOCC3)n2)cc(C)n1`
Result :: ≤ 1000 nM

Query :: Quick one: give measured IC50 for `Cc1cc(-c2cc(N3CCN(c4ncccc4C(F)(F)F)CC3)nc(N3CCC3(C)C)n2)ccc1F`
Result :: ≤ 1000 nM

Query :: Answer with the recorded IC50 for the compound listed here: `COC[C@@H]1CCCN1c1nc(-c2ccc(F)c(C)c2)cc(N2CCN(c3ncccc3Cl)C[C@H]2C)n1`
Result :: ≤ 1000 nM

Query :: Let me know recorded IC50 for `CS(=O)(=O)C1CCN(c2nc(-c3ccc(F)c(Cl)c3)cc(N3CCN(c4ncccc4C(F)(F)F)CC3)n2)CC1` , thanks.
Result :: ≤ 1000 nM

Query :: Specify measured IC50 for CC1CCCN1c1nc(-c2ccc(F)c(Cl)c2)cc(N2CCN(c3ncccc3C#N)CC2)n1 (stereo not drawn) .
Result :: ≤ 1000 nM

Query :: Report measured IC50; entry is `Cc1cc(-c2cc(N3CCN(c4ncccc4C(F)(F)F)CC3)nc(N3CCCC3)n2)ccc1F`
Result :: ≤ 1000 nM

Query :: // Input: `Fc1ccc(-c2cc(N3CCN(c4ncccc4C(F)(F)F)CC3)nc(SCc3ccccc3)n2)cc1Cl` . Output its IC50 only.
Result :: ≤ 1000 nM

Query :: Give reported IC50 value for `O=C1CCN1c1nc(-c2ccc(F)c(Cl)c2)cc(N2CCN(c3ncccc3C(F)(F)F)CC2)n1`
Result :: ≤ 1000 nM

Query :: Fill in reported IC50 for this entry: `CCC(CC)Oc1nc(-c2ccc(F)c(Cl)c2)cc(N2CCN(c3ncccc3C(F)(F)F)CC2)n1`
Result :: ≤ 1000 nM

Query :: Tell us which IC50 value is on record for Cc1cc(-c2cc(N3CCN(c4ncccc4C(F)(F)F)CC3)nc(N3CCCCC3C)n2)ccc1F (stereo not drawn)
Result :: ≤ 1000 nM

Query :: Answer with the recorded IC50 for the compound listed here: `Cc1cc(-c2cc(N3CCN(c4ncccc4Cl)CC3)nc(N3CCCCC3)n2)ccc1F`
Result :: ≤ 1000 nM

Query :: Tell me measured IC50 for CC1CCCN1c1nc(-c2ccc(F)c(Cl)c2)cc(N2CCN(c3ncccc3Cl)C[C@H]2C)n1 (stereo partly drawn) please.
Result :: ≤ 1000 nM

Query :: Report IC50 for `Cc1cc(-c2cc(N3CCN(c4ncccc4C(F)(F)F)CC3)nc(N3CCCCC3)n2)ccc1F`
Result :: ≤ 1000 nM

Query :: State its IC50: `C[C@@H]1CN(c2ncccc2Cl)CCN1c1cc(-c2ccc(F)c(Cl)c2)nc(N2CCCCC2)n1`
Result :: ≤ 1000 nM

Query :: Given `CN(c1nc(-c2ccc(F)c(Cl)c2)cc(N2CCN(c3ncccc3C(F)(F)F)CC2)n1)C1CCCCC1` , respond with its IC50.
Result :: ≤ 1000 nM

Query :: Fill in IC50 for record `CC(C)N(CCO)c1nc(-c2ccc(F)c(Cl)c2)cc(N2CCN(c3ncccc3C(F)(F)F)CC2)n1`
Result :: ≤ 1000 nM

Query :: Supply reported IC50 belonging to this compound: `COC[C@H]1CCCN1c1nc(-c2ccc(F)c(C)c2)cc(N2CCN(c3ncccc3Cl)C[C@H]2C)n1`
Result :: ≤ 1000 nM

Query :: Report IC50, nothing else, for this compound: `CCN(CC)c1nc(-c2ccc(F)c(F)c2)cc(N2CCN(c3ncccc3C(F)(F)F)CC2)n1`
Result :: ≤ 1000 nM

Query :: Determine its reported IC50: `CC(=N)N1CCN(c2nc(-c3ccc(F)c(C)c3)cc(N3CCN(c4ncccc4C(F)(F)F)CC3)n2)CC1`
Result :: ≤ 1000 nM

Query :: Please supply the value of reported IC50 for the item CC1CCCCN1c1nc(-c2ccc(F)c(F)c2)cc(N2CCN(c3ncccc3Cl)C[C@H]2C)n1 (stereo partly drawn)
Result :: ≤ 1000 nM

Query :: Supply reported IC50 belonging to this compound: CCC(C)N(C)c1nc(-c2ccc(F)c(C)c2)cc(N2CCN(c3ncccc3C(F)(F)F)CC2)n1 (stereo not drawn)
Result :: ≤ 1000 nM
